- tested.target: LRRK2 G2019S (Homo sapiens (Human), UniProt Q5S007, G2019S)
- Sequence (Q5S007 970-2527 G2019S): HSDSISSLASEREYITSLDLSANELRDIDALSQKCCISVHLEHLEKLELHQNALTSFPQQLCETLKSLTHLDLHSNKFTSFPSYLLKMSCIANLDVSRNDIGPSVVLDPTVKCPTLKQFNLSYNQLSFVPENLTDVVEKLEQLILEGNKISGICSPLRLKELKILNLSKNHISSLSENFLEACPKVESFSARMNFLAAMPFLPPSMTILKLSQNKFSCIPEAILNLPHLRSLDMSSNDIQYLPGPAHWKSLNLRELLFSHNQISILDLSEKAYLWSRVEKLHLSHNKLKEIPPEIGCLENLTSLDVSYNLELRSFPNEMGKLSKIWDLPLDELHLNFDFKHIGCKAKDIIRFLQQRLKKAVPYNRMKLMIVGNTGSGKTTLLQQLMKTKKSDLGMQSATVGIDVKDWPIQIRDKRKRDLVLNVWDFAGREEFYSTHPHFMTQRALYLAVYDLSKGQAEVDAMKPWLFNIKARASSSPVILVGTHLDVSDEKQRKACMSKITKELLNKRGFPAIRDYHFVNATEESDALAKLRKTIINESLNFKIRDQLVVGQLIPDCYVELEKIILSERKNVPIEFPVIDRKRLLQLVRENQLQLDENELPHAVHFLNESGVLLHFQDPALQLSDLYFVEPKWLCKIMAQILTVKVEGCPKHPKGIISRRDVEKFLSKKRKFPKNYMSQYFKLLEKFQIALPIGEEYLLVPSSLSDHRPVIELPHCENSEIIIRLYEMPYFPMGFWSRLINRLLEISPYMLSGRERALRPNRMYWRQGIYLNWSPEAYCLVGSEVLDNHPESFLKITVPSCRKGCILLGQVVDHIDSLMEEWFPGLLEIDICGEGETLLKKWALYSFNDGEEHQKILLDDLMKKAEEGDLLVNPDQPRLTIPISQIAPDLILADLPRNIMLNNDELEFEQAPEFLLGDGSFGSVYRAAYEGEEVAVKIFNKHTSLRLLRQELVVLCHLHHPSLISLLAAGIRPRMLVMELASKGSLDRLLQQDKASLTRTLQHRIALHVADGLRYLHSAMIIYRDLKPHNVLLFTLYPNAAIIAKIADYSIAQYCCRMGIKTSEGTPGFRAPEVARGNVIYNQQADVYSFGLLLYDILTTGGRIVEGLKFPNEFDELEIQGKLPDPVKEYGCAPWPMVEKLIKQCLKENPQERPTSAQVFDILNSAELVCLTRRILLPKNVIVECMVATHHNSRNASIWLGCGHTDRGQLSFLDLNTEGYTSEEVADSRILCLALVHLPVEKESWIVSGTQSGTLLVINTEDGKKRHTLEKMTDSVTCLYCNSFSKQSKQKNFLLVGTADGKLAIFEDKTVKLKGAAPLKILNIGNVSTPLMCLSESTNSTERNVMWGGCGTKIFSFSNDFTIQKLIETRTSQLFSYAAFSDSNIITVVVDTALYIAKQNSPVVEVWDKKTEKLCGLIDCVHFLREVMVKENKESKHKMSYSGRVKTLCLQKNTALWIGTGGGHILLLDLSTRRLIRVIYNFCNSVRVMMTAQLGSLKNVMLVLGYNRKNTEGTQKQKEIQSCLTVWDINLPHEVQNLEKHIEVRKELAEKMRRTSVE
- protocol.text: LRRK2 G2019S kinase activity assay (LanthaScreen TR-FRET)
- experimental.conditions: 250 pM LRRK2 G2019S kinase, 1.3 mM ATP, 0.4 μM fluorescein-LRRKtide
The recorded IC50 of each item maps onto one of these classes: lower range (below 200 nM), middle range (200 nM to below 500 nM), upper range (500 nM or more)

- substance.smiles: "Cc1cc(-c2cnc(N)c(-c3cn(C(C)C)nn3)c2)ccc1CN1CCOCC1"
  assigned.class: "middle range"
- substance.smiles: "COc1cc(-c2cnc(N)c(-c3cn(C(C)C)nn3)c2)ccc1CN1CCOCC1"
  assigned.class: "lower range"
- substance.smiles: "CC(C)n1cc(-c2cc(-c3ccc(F)c(CN4CCOCC4)c3)cnc2N)nn1"
  assigned.class: "upper range"
- substance.smiles: "COc1cccc(-c2cnc(N)c(-c3nnc(C4CCNCC4)o3)c2)c1"
  assigned.class: "upper range"
- substance.smiles: "Nc1ncc(-c2ccc(CN3CCOCC3)cc2)cc1-c1nnc(C2CC2)o1"
  assigned.class: "middle range"
- substance.smiles: "CC(C)n1cc(-c2cc(-c3ccc(CN4CCOCC4)cc3)cnc2N)nn1"
  assigned.class: "lower range"
- substance.smiles: "CC(C)n1cc(-c2cc(-c3ccc(N4CCOCC4)cc3)cnc2N)nn1"
  assigned.class: "middle range"
